Assayed Target: UniProtKB P07943
Experiment Summary: Inhibition of Fischer-344 rat lens ALR2 at 100 uM
Type: tissue-based
Stated Conditions: Lens of camera-type eye
Note to self: values exactly at 60% are TRUE. So inhibition at or above 60% is TRUE, below is FALSE.

Worked examples follow.
Structure String: O=C(Nc1ccc(S(=O)(=O)Nc2cc(F)c(O)c(F)c2)cc1)c1ccccc1
Answer Label: TRUE
--
Structure String: O=S(=O)(Nc1cc(F)c(O)c(F)c1)c1ccc(C(F)(F)F)cc1
Answer Label: FALSE
--
Structure String: O=[N+]([O-])c1ccc(S(=O)(=O)Nc2cc(F)c(O)c(F)c2)cc1
Answer Label: TRUE
--
Structure String: Nc1ccc(S(=O)(=O)N(Cc2ccc(Br)cc2F)c2cc(F)c(O)c(F)c2)cc1
Answer Label: TRUE
--
Structure String: COc1ccc(C(=O)Nc2ccc(S(=O)(=O)Nc3cc(F)c(O)c(F)c3)cc2)cc1
Answer Label: TRUE
--
Structure String: O=C1NOC[C@@H]1NS(=O)(=O)c1ccccc1
Answer Label: FALSE
--
Structure String: CCNC(=O)Nc1ccc(S(=O)(=O)Nc2cc(F)c(O)c(F)c2)cc1
Answer Label: TRUE
--
Structure String: O=[N+]([O-])c1ccc(S(=O)(=O)N(Cc2ccc(Br)cc2F)c2cc(F)c(O)c(F)c2)cc1
Answer Label: TRUE

Decide: is the reported value of inhibition for Nc1ccc(S(=O)(=O)Nc2cc(F)c(O)c(F)c2)cc1 equal to or greater than 60%? TRUE

Can O=C(O)CNS(=O)(=O)c1ccccc1 be said to have inhibition at or above 60%? FALSE

Does inhibition meet or surpass 60% for O=S(=O)(c1ccccc1)N(c1cc(F)c(O)c(F)c1)S(=O)(=O)c1ccccc1 ? TRUE

Check if inhibition >= 60% (inclusive). Item: O=S(=O)(c1ccccc1)N(Cc1ccc(Br)cc1F)c1cc(F)c(O)c(F)c1 TRUE
